Attribution: ChEMBL document CHEMBL5042498

- ASSAY_DETAILS: Tmax in Sprague-Dawley rat plasma at 10 mg/kg, ip measured upto 24 hrs post dose by LC-MS/MS analysis
READOUT_TYPE: Tmax (min)
Note: unit min is implicit; provide only the numeric part.

Name the reported Tmax value associated with the compound O=C(NCCc1cccc(Cl)c1)Nc1ccc(Cl)cc1 24

* * *

- ASSAY_DETAILS: AUC infinity in Sprague-Dawley rat brain 10 mg/kg, ip measured upto 24 hrs post dose by LC-MS/MS analysis
READOUT_TYPE: AUC(0-inf) (ng·h/mL)
Note: unit ng·h/mL is implicit; provide only the numeric part.

Name the reported AUC(0-inf) value associated with the molecule O=C(NCCc1cccc(Cl)c1)Nc1ccc(Cl)cc1 1440

* * *

Hi there, I'd appreciate the recorded pIC50 for every entry that follows.
- MEASURED_ON: UniProt P47746
- Sequence (P47746 whole entry): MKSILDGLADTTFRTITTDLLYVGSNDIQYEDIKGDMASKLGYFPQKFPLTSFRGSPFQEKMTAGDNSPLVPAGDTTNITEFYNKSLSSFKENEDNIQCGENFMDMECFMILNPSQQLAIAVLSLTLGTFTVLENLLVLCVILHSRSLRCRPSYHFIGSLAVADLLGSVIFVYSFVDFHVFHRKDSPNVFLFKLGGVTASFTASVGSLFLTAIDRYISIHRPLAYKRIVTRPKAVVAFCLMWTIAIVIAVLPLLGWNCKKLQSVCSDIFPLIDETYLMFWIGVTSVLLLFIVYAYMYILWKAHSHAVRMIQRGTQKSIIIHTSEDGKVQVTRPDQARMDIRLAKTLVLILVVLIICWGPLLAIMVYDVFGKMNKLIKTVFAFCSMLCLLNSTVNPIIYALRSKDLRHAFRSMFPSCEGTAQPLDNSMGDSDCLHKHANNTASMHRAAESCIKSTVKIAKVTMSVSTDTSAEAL
- ASSAY_DETAILS: Allosteric antagonist activity against mouse CB1 receptor in cerebellar membranes measured after 60 mins by [35S]GTPgammaS binding assay
By convention, pIC50 is the negative base-10 log of a molar concentration.

Name the reported pIC50 value associated with the compound O=C(NCCc1ccc(F)cc1)Nc1ccc(Cl)cc1 6.05

Name the reported pIC50 value associated with the compound COc1ccc(CCNC(=O)Nc2ccc(Cl)cc2)cc1 5.43

* * *

- ASSAY_DETAILS: Tmax in Sprague-Dawley rat brain at 10 mg/kg, ip measured upto 24 hrs post dose by LC-MS/MS analysis
READOUT_TYPE: Tmax

Name the reported Tmax value associated with the compound O=C(NCCc1cccc(Cl)c1)Nc1ccc(Cl)cc1 24 min

* * *

Hi there, I'd appreciate the recorded pIC50 for every entry that follows.
- MEASURED_ON: Cannabinoid receptor 1 (Homo sapiens, UniProt P21554)
- Sequence (P21554 whole entry): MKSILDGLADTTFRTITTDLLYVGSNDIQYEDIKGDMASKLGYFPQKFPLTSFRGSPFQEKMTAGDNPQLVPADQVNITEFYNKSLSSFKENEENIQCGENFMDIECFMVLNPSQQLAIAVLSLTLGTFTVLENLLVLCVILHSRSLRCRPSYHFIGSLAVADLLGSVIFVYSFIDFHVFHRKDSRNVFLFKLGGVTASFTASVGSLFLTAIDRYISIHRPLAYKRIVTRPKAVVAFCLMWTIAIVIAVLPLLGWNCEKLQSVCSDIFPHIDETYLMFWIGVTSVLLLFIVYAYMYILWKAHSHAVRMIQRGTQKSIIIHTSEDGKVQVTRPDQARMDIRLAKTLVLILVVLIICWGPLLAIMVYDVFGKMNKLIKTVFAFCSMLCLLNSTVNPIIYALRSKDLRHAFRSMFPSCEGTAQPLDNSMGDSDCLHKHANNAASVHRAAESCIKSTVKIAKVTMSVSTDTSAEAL
- ASSAY_DETAILS: Allosteric antagonist activity at human CB1 receptor expressed in CHO-RD-HGA16 cells overexpressing Galpha16 assessed as inhibition of CP55940-stimulated calcium mobilization incubated for 15 mins FLIPR assay
- Format: functional, cell-based
By convention, pIC50 is the negative base-10 log of a molar concentration.

Name the reported pIC50 value associated with the compound COc1ccccc1CCNC(=O)Nc1ccc(Cl)cc1 5.80

Name the reported pIC50 value associated with the compound O=C(NCCc1ccc(F)cc1)Nc1ccc(Cl)cc1 6.98

Name the reported pIC50 value associated with the compound CN(C)c1cccc(CCNC(=O)Nc2ccc(Cl)cc2)c1 5.79

Name the reported pIC50 value associated with the compound O=C(NCCc1ccc(Cl)cc1)Nc1ccc(Cl)cc1 6.79

Name the reported pIC50 value associated with the compound O=C(NCCc1cccc(Br)c1)Nc1ccc(Cl)cc1 7.49

Name the reported pIC50 value associated with the compound O=C(NCCc1ccc(Br)cc1)Nc1ccc(Cl)cc1 6.83

Name the reported pIC50 value associated with the compound O=C(NCCc1cccc(C(F)(F)F)c1)Nc1ccc(Cl)cc1 7.54

Name the reported pIC50 value associated with the compound O=C(NCCc1c(F)c(F)c(F)c(F)c1F)Nc1ccc(Cl)cc1 7.49

Name the reported pIC50 value associated with the compound O=C(NCCc1ccccc1F)Nc1ccc(Cl)cc1 6.77

Name the reported pIC50 value associated with the compound O=C(NCCc1c(F)cc(F)cc1F)Nc1ccc(Cl)cc1 7.10

Name the reported pIC50 value associated with the compound CC(C)(C)c1ccc(CCNC(=O)Nc2ccc(Cl)cc2)cc1 6.27

* * *

- MEASURED_ON: Cannabinoid receptor 1 (Homo sapiens)
- ASSAY_DETAILS: Antagonist activity at N-terminal tagged human CB1 receptor transfected with HEK293 cells assessed as forskolin-stimulated cAMP level in presence of CP55940 by BRET assay
- Assay type: functional, cell-based
Hi there, I'd appreciate the recorded IC50 for every entry that follows.
Note: unit µM is implicit; provide only the numeric part.

Name the reported IC50 value associated with the molecule O=C(NCCc1ccccc1C(F)(F)F)Nc1ccc(Cl)cc1 3.24

Name the reported IC50 value associated with the molecule Cc1ccc(CCNC(=O)Nc2ccc(Cl)cc2)cc1C 1.15

Name the reported IC50 value associated with the molecule O=C(NCCc1cccc(OC(F)(F)F)c1)Nc1ccc(Cl)cc1 10.7

Name the reported IC50 value associated with the molecule Cc1cccc(CCNC(=O)Nc2ccc(Cl)cc2)c1 0.912

Name the reported IC50 value associated with the molecule N#Cc1cccc(CCNC(=O)Nc2ccc(Cl)cc2)c1 0.871

Name the reported IC50 value associated with the molecule O=C(NCCc1cccc(F)c1)Nc1ccc(Cl)cc1 1.35

Name the reported IC50 value associated with the molecule Cc1cc(C)cc(CCNC(=O)Nc2ccc(Cl)cc2)c1 6.61
